tested-system: N-type Ca^2+ channel in IMR-32 cells (Homo sapiens, UniProt Q00975)
Construct: host or cells: IMR-32 (differentiated with dibutyryl cAMP and bromodeoxyuridine)
Sequence (Q00975 whole entry): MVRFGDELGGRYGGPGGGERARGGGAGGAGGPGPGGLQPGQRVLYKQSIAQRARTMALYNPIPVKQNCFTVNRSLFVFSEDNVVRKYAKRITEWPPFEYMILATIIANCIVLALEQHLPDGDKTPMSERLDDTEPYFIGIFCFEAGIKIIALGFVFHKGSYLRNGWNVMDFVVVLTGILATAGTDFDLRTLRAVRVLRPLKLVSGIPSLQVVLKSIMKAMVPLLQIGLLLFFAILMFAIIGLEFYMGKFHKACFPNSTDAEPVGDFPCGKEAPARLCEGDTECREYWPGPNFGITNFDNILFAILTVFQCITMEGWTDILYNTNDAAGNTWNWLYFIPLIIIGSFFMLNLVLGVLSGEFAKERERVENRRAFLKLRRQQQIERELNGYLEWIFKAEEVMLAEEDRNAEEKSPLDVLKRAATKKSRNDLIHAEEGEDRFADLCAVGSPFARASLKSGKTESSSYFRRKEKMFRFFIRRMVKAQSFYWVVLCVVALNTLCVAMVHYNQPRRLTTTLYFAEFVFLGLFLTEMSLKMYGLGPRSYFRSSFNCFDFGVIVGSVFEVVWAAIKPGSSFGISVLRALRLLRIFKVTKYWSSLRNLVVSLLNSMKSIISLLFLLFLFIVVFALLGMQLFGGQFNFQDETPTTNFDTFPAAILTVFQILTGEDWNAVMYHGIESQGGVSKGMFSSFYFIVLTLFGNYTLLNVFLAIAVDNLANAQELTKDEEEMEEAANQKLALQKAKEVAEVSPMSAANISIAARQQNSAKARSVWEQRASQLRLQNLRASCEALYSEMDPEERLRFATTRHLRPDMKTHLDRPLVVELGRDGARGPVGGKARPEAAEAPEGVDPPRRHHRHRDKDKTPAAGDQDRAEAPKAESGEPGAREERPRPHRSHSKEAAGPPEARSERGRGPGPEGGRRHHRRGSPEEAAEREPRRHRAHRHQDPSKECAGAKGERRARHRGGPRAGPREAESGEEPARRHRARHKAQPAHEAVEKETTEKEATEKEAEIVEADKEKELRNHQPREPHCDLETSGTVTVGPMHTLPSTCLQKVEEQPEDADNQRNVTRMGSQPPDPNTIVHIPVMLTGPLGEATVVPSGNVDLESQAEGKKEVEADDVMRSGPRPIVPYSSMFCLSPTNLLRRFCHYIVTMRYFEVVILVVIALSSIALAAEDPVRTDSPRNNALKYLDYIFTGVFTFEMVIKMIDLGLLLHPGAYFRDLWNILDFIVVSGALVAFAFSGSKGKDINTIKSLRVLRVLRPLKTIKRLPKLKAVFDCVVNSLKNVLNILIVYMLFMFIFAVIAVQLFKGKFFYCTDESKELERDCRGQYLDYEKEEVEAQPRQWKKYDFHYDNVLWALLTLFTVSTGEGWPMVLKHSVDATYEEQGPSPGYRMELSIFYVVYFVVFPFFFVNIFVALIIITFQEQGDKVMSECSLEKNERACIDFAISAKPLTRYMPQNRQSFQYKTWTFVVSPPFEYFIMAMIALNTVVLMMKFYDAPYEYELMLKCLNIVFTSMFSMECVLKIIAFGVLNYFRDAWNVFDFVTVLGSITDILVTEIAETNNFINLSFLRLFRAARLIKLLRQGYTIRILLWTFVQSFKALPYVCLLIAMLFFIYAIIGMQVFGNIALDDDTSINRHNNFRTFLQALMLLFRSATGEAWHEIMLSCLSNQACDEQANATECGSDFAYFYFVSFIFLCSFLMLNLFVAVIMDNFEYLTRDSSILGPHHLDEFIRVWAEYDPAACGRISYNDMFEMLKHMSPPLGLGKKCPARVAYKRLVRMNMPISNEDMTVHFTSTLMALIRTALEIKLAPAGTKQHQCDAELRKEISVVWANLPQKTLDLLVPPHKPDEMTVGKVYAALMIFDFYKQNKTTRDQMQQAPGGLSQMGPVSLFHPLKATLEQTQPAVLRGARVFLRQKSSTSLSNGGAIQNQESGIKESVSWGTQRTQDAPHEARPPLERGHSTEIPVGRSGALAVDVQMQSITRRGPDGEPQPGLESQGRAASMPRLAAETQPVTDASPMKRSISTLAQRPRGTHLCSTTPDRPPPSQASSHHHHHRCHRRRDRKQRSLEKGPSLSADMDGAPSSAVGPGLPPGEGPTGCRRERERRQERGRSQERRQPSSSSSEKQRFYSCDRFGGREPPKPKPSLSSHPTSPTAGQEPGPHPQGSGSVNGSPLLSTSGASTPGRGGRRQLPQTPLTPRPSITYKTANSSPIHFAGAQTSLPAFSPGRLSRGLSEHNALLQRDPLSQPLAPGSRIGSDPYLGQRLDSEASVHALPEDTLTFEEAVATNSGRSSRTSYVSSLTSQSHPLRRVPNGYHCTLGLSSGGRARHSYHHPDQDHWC
experimental-protocol: N-type Ca2+ channel blockade in IMR-32 cells (fluorescent Ca2+ indicator Indo-1)
Type: cell-based
conditions: IMR-32, 1 μM, 5 μM nitrendipine present
endpoint-name: inhibition at 1 µM (%)

{"compound": "CC(C)=CCN(c1ccc(OCc2ccccc2)cc1)C1CCN(C(=O)C2CCN(CCC(C)C)CC2)CC1", "tested-system": "N-type Ca^2+ channel in IMR-32 cells (Homo sapiens, UniProt Q00975)", "result-value": 37}
{"compound": "CC(C)=CCN(c1ccc(OCc2ccccc2)cc1)C1CCN(C(=O)C2CCCC(C)N2CCC(C)C)CC1 (centres unmarked)", "tested-system": "N-type Ca^2+ channel in IMR-32 cells (Homo sapiens, UniProt Q00975)", "result-value": 45}
{"compound": "CC(C)=CCN(c1ccc(OCc2ccccc2)cc1)C1CCN(C(=O)[C@@H](O)CC(C)C)CC1", "tested-system": "N-type Ca^2+ channel in IMR-32 cells (Homo sapiens, UniProt Q00975)", "result-value": 64}
{"compound": "CC(C)=CCN(c1ccc(OCc2ccccc2)cc1)C1CCN(CCC(C)C)CC1", "tested-system": "N-type Ca^2+ channel in IMR-32 cells (Homo sapiens, UniProt Q00975)", "result-value": 40}
{"compound": "CC(C)=CCN(c1ccc(OCc2ccccc2)cc1)C1CCN(C(=O)C2C(C)CCCN2CCC(C)C)CC1 (centres unmarked)", "tested-system": "N-type Ca^2+ channel in IMR-32 cells (Homo sapiens, UniProt Q00975)", "result-value": 60}
{"compound": "CC(C)=CCN(c1ccc(C(C)C)cc1)C1CCN(Cc2cccnc2)CC1", "tested-system": "N-type Ca^2+ channel in IMR-32 cells (Homo sapiens, UniProt Q00975)", "result-value": 18}
{"compound": "CC(C)=CCN(c1ccc(OCc2ccccc2)cc1)C1CCN(Cc2ccc(Br)cc2)CC1", "tested-system": "N-type Ca^2+ channel in IMR-32 cells (Homo sapiens, UniProt Q00975)", "result-value": 63}
{"compound": "CC(C)=CCN(c1ccc(OCc2ccccc2)cc1)C1CCN(C(=O)C2CN(C)CCN2CCC(C)C)CC1 (centres unmarked)", "tested-system": "N-type Ca^2+ channel in IMR-32 cells (Homo sapiens, UniProt Q00975)", "result-value": 44}
